# Tested on: Yap1 mRNA
# assay.text: Dose-dependent inhibition of human Yap1 in A-431 cells (Example 7, 10,000 cells per well, RTS36584)
# Assay type: cell-based
# reported.conditions: Table 57, 62.5 nM, free uptake, A-431 cells 10,000 cells per well, 48 hours
Strand notation (5' to 3'): a small letter for the sugar, then the base; units joined by * are phosphorothioate-linked, units joined directly phosphodiester-linked; [ ] holds rarer units or linkages, { } end groups; capitals alone tell only the bases. k = constrained ethyl (cEt); [5mC] = 5-methylcytosine; d = 2'-deoxy (DNA)
Overview of reported Yap1 mRNA, % UTC across a group of substances:

Before answering, review these 3 worked examples.
- substance: "958786 (kT*kA*kT*dG*dT*d[5mC]*d[5mC]*dT*dA*d[5mC]*dT*dT*dT*k[5mC]*k[5mC]*k[5mC]; antisense) [compound 958786]"
  test.system: "Yap1 mRNA"
  result: "84 % UTC"
- substance: "958541 (kG*kT*kA*dT*dT*d[5mC]*dT*dA*dT*d[5mC]*d[5mC]*dA*dG*kG*kG*kT; antisense) [compound 958541]"
  test.system: "Yap1 mRNA"
  result: "51 % UTC"
- substance: "958686 (k[5mC]*kG*k[5mC]*dA*dA*dT*dA*dT*dA*dG*dT*d[5mC]*dT*kA*kT*kA; antisense) [compound 958686]"
  test.system: "Yap1 mRNA"
  result: "69 % UTC"

Query substance follows.
# lookup: Yap1 mRNA, % UTC of 958526 (kA*kG*kT*dA*dA*dG*dA*dA*d[5mC]*dA*dA*dT*d[5mC]*kT*kT*kG; antisense) [compound 958526]
83 % UTC

* * *

# System: Yap1 mRNA
# assay.text: Dose-dependent inhibition of human Yap1 in A-431 cells (Example 7, 10,000 cells per well, RTS36584)
# Type: cell-based
# reported.conditions: Table 56, A-431 cells 10,000 cells per well, free uptake
Strand notation (5' to 3'): a small letter for the sugar, then the base; units joined by * are phosphorothioate-linked, units joined directly phosphodiester-linked; [ ] holds rarer units or linkages, { } end groups; capitals alone tell only the bases. k = constrained ethyl (cEt); [5mC] = 5-methylcytosine; d = 2'-deoxy (DNA)
readout.kind: pIC50
Units for pIC50: none; it is -log10 of a concentration expressed in mol/L.

Look over these answered cases.
- substance: "958496 (k[5mC]*k[5mC]*kT*dT*dA*dT*dA*dA*dG*d[5mC]*dT*d[5mC]*d[5mC]*kT*kA*kA; antisense) [compound 958496]"
  pIC50: 7.05
- substance: "958361 (antisense kG*k[5mC]*kT*d[5mC]*dG*dA*dA*d[5mC]*dA*dT*dG*d[5mC]*dT*kG*kT*kG) [compound 958361]"
  pIC50: 6.66

Note: attention shifts to another entry.
Which value of pIC50 has been reported for 958377 (antisense kG*k[5mC]*kT*dG*dG*dG*dA*dT*dT*dG*dA*dT*dA*kT*kT*k[5mC]) [compound 958377] in the records?
6.89

* * *

# System: Yap1 mRNA
# assay.text: Dose-dependent inhibition of human Yap1 in A-431 cells (Example 7, 10,000 cells per well, RTS36584)
# Format: cell-based
# reported.conditions: Table 59, 15.6 nM, free uptake, A-431 cells 10,000 cells per well, 48 hours
Strand notation (5' to 3'): a small letter for the sugar, then the base; units joined by * are phosphorothioate-linked, units joined directly phosphodiester-linked; [ ] holds rarer units or linkages, { } end groups; capitals alone tell only the bases. k = constrained ethyl (cEt); [5mC] = 5-methylcytosine; d = 2'-deoxy (DNA)
Yap1 mRNA, % UTC values by entry
Numbers only here, please. The scale is % UTC.

- substance: "958603 (kT*kG*kG*dT*dA*dT*dG*dA*dA*dT*dT*d[5mC]*dT*kG*kA*kA; antisense) [compound 958603]"
  test.system: "Yap1 mRNA"
  Yap1 mRNA, % UTC [% UTC]: 70
- substance: "958507 (kG*kA*kG*d[5mC]*dA*dG*dA*dT*dA*dA*dT*d[5mC]*dG*kA*kG*kA; antisense) [compound 958507]"
  test.system: "Yap1 mRNA"
  Yap1 mRNA, % UTC [% UTC]: 93
- substance: "958668 (kG*kT*kG*dA*dT*d[5mC]*dT*dG*dT*dG*dA*dG*dA*kG*kG*kT; antisense) [compound 958668]"
  test.system: "Yap1 mRNA"
  Yap1 mRNA, % UTC [% UTC]: 81

Give Yap1 mRNA, % UTC (Yap1 mRNA) of the following substance: 958767 (kA*k[5mC]*kG*dA*dA*dT*dA*dA*dG*dG*d[5mC]*dA*dT*kT*kA*kG; antisense) [compound 958767]
101

Yap1 mRNA, % UTC of 958573 (kG*kG*k[5mC]*dA*dA*dA*dT*dT*dA*dT*dA*dG*dG*k[5mC]*kA*k[5mC]; antisense) [compound 958573] on Yap1 mRNA?
81

Param readout = Yap1 mRNA, % UTC; param system = Yap1 mRNA; param query = 715483 (k[5mC]*kT*k[5mC]*dT*dT*dT*dG*dG*dA*dA*dA*d[5mC]*d[5mC]*kA*kT*kT) [compound 715483] ; response: value
83

Field: Yap1 mRNA, % UTC (Yap1 mRNA). Entry: 958563 (kA*kG*k[5mC]*dT*dT*dT*dT*dG*d[5mC]*d[5mC]*dA*dG*dG*kA*kG*kA; antisense) [compound 958563]
94

What measured Yap1 mRNA, % UTC is associated with 958798 (kT*kG*k[5mC]*dA*dG*dT*dA*dT*dA*dA*dT*dA*dT*k[5mC]*k[5mC]*kT; antisense) [compound 958798] on Yap1 mRNA?
101

Provide the documented Yap1 mRNA, % UTC with Yap1 mRNA as the system for 958518 (k[5mC]*k[5mC]*kA*d[5mC]*dA*dG*dT*dA*dA*dT*dA*dG*d[5mC]*kT*k[5mC]*kT; antisense) [compound 958518]
95

Form: Entry = 958623 (kT*kT*kG*dA*dT*dA*dT*dT*d[5mC]*d[5mC]*dG*d[5mC]*dA*kT*kT*kG; antisense) [compound 958623] | System = Yap1 mRNA | Yap1 mRNA, % UTC = ____
100

These measurements were taken from patent US11214803B2.
